From: patent US7915448B2

Each entry below carries its recorded IC50.
tested on: human VR1 receptors (Homo sapiens, UniProt Q8NER1)
Construct: cell type not specified
Sequence (Q8NER1 whole entry): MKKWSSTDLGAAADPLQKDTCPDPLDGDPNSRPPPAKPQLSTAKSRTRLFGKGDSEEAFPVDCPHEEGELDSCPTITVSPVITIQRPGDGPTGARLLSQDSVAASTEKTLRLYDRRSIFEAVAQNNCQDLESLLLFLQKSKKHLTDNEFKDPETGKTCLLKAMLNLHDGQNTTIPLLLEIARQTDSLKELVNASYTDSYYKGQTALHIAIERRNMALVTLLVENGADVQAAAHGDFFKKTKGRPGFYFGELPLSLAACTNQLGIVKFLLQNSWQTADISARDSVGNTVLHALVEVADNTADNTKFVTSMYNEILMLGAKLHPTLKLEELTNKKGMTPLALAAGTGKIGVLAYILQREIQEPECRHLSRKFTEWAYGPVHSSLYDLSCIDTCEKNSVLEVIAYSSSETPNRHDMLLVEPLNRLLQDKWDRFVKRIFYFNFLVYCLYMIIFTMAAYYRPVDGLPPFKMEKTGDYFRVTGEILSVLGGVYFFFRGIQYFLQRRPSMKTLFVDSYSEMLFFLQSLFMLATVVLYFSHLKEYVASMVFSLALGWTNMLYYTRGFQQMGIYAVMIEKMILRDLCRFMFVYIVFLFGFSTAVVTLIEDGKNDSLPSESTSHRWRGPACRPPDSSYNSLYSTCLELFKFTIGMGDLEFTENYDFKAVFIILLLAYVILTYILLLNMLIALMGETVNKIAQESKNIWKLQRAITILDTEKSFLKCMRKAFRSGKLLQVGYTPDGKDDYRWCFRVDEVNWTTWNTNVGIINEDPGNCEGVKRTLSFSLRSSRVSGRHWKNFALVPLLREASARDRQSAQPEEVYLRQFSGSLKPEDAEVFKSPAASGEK
assay comment: Human VR1 antagonist assay (Ca2+ imaging)
settings: cells expressing human VR1, fura-2 Ca2+ imaging, FDSS 6000; capsaicin (300 nM) or acid (pH5.8) stimulation, table does not say which

Consider the following illustrative entries.
# compound, tested on, endpoint result
records = [
    ("CC[C@@H](NC(=O)[C@H]1C[C@]1(C)c1cc(F)c(C(C)(C)C)c(F)c1)c1ccc(NS(C)(=O)=O)c(C)c1", "human VR1 receptors (Homo sapiens, UniProt Q8NER1)", "< 3 nM"),
    ("Oc1cc2c(cc1O)CN(C(=S)NCCc1ccc(Cl)cc1)CCC2 [Capsazepine, reference compound]", "human VR1 receptors (Homo sapiens, UniProt Q8NER1)", "237 to 455 nM"),
]

Let us examine a further case.
Q. State its IC50: Cc1cc([C@@H](C)NC(=O)C2CC2(C)c2cc(F)c(C(C)(C)C)c(F)c2)c(F)cc1NS(C)(=O)=O (stereo partly drawn)
A. < 3 nM
